List of inhibition at 0.5 µg/mL values.
- target.entity: rat lens aldose reductase (rAR) (Rattus norvegicus, UniProt P07943)
- Construct: The rat lens homogenate was prepared according to the method of Hayman and Kinoshita with some modifications; from tissue; host or cells: lenses of Sprague-Dawley rats (homogenate supernatant)
- assay: Rat lens aldose reductase (rAR) inhibition, DL-glyceraldehyde substrate, NADPH decrease at 340 nm
- Type: biochemical
- condition.parameters: Table 2; 0.5 µg/mL; read-out: Inhibition (%) of rAR
Please provide the amount together with its unit, number first.

compound	inhibition at 0.5 µg/mL
C[C@@H]1O[C@@H](OC[C@H]2O[C@@H](Oc3cc(O)c4c(=O)cc(-c5ccc(O)c(O)c5)oc4c3)[C@H](O)[C@@H](O)[C@@H]2O)[C@H](O)[C@H](O)[C@H]1O [Compound 7, luteolin-7-O-rutinoside]	29.9%
O=c1cc(-c2ccc(O)c(O)c2)oc2c([C@@H]3O[C@H](CO)[C@@H](O)[C@H](O)[C@H]3O)c(O)cc(O)c12	35.3%
O=c1c(O)c(-c2ccc(O)c(O)c2)oc2cc(O)cc(O)c12 [Quercetin, quercetin, reference compound]	26.3%
O=C(/C=C/c1ccc(O)c(O)c1)O[C@H](Cc1ccc(O)c(O)c1)C(=O)O	18.3%

Now examine the next entry.
Task item: Entry under review: O=c1cc(-c2ccc(O)c(O)c2)oc2cc(O)c([C@@H]3O[C@H](CO)[C@@H](O)[C@H](O)[C@H]3O)c(O)c12 . Reported inhibition at 0.5 µg/mL?
Reply: 37.2%

* * *

- target.entity: recombinant human aldose reductase (rhAR) (Homo sapiens)
- assay: Kinetic analysis of aldose reductase inhibition (Lineweaver-Burk plots)
- condition.parameters: from secondary Lineweaver-Burk plots; DL-glyceraldehyde 0.1-1 mM; read-out: inhibitory constant (Ki)
measurement.type: pKi
When answering, recall that pKi equals minus log10 of the concentration in mol/L, and write that number alone.

O=c1cc(-c2ccc(O)c(O)c2)oc2c([C@@H]3O[C@H](CO)[C@@H](O)[C@H](O)[C@H]3O)c(O)cc(O)c12 5.49

Now examine the next entry.
Task item: Entry under review: O=c1cc(-c2ccc(O)c(O)c2)oc2cc(O)c([C@@H]3O[C@H](CO)[C@@H](O)[C@H](O)[C@H]3O)c(O)c12 . Reported pKi?
Reply: 5.23

Source: paper PMC6271131
